Source listed as patent US20130029928A1.

# Measurement notes: Phase I study CXR1002-001: plasma pharmacokinetics (LC-MS/MS)
# Format: in vivo, human
# Condition summary: human, plasma, oral, 200 mg, Patient 010 Dose 200 mg; 3 hr; read-out: Concentration
Readout label: concentration at 3 h (µM)
All answers are understood in µM, so give the number only.

Endpoint output: concentration at 3 h of O=C(O)C(F)(F)C(F)(F)C(F)(F)C(F)(F)C(F)(F)C(F)(F)C(F)(F)F . Value? 30.4

* * *

# Measurement notes: Phase I study CXR1002-001: plasma pharmacokinetics (LC-MS/MS)
# Type: in vivo, human
# Condition summary: human, plasma, oral, 600 mg, Patient 021, 600 mg, person, plasma, 340 hr; read-out: Concentration
Readout label: concentration at 340 h (µM)
All answers are understood in µM, so give the number only.

Endpoint output: concentration at 340 h of O=C(O)C(F)(F)C(F)(F)C(F)(F)C(F)(F)C(F)(F)C(F)(F)C(F)(F)F . Value? 633

* * *

# Measurement notes: Phase I study CXR1002-001: plasma pharmacokinetics (LC-MS/MS)
# Format: in vivo, human
# Condition summary: human, plasma, po, 1200 mg, Patient 037, 1200 mg weekly oral dose, Time 508 hr; read-out: Concentration (plasma level)
Readout label: concentration at 508 h (µM)
All answers are understood in µM, so give the number only.

Endpoint output: concentration at 508 h of O=C(O)C(F)(F)C(F)(F)C(F)(F)C(F)(F)C(F)(F)C(F)(F)C(F)(F)F . Value? 1390

* * *

# Measurement notes: Phase I study CXR1002-001: plasma pharmacokinetics (LC-MS/MS)
# Assay type: in vivo, human
# Condition summary: human, plasma, oral, 200 mg, Patient 009 Dose 200 mg; 674 hr; read-out: Concentration
Readout label: concentration at 674 h (µM)
All answers are understood in µM, so give the number only.

Endpoint output: concentration at 674 h of O=C(O)C(F)(F)C(F)(F)C(F)(F)C(F)(F)C(F)(F)C(F)(F)C(F)(F)F [CXR1002] . Value? 472

* * *

# Measurement notes: Phase I study CXR1002-001: plasma pharmacokinetics (LC-MS/MS)
# Type: in vivo, human
# Condition summary: human, plasma, oral, 450 mg, Patient 016 Dose 450 mg; 672 hr (Day 29); read-out: Concentration
# Source text: PK samples, PD (fasting) samples, blood glucose, and blood triglyceride samples, were taken over a 6-week period. Dose limiting toxicity (DLT) will be based on the toxicity assessments over the first 3-week period of the repeat dosing schedule. […]
Readout label: concentration at 672 h
Kindly format the answer as number then unit.

Endpoint output: concentration at 672 h of O=C(O)C(F)(F)C(F)(F)C(F)(F)C(F)(F)C(F)(F)C(F)(F)C(F)(F)F . Value? 605 µM

* * *

# Measurement notes: Phase I study CXR1002-001: plasma pharmacokinetics (LC-MS/MS)
# Type: in vivo, human
# Condition summary: human, plasma, oral, 200 mg, Patient 009 Dose 200 mg; 0 hr
Readout label: concentration at 0 h (nM)
All answers are understood in nM, so give the number only.

Endpoint output: concentration at 0 h of O=C(O)C(F)(F)C(F)(F)C(F)(F)C(F)(F)C(F)(F)C(F)(F)C(F)(F)F . Value? 0

* * *

# System: MES-SA
# Measurement notes: ATP depletion cytotoxicity assay 48 hr
# Assay type: cell-based
# Condition summary: Homo sapiens, Study CXR0798, read-out: IC50 1
pIC50: −log10 of the molar value.
Readout label: pIC50

Endpoint output: pIC50 of O=C(O)C(F)(F)C(F)(F)C(F)(F)C(F)(F)C(F)(F)C(F)(F)C(F)(F)F [CXR1002] . Value? < 3.00

* * *

# Measurement notes: Phase I study CXR1002-001: plasma pharmacokinetics (LC-MS/MS)
# Format: in vivo, human
# Condition summary: human, plasma, oral, 950 mg, Patient 032, 950 mg, person, plasma, 3 hr; read-out: Concentration
# Description: PK samples, PD (fasting) samples, blood glucose, and blood triglyceride samples, were taken over a 6-week period. Dose limiting toxicity (DLT) will be based on the toxicity assessments over the first 3-week period of the repeat dosing schedule. […]
Readout label: concentration at 3 h (µM)
All answers are understood in µM, so give the number only.

Endpoint output: concentration at 3 h of O=C(O)C(F)(F)C(F)(F)C(F)(F)C(F)(F)C(F)(F)C(F)(F)C(F)(F)F . Value? 191

* * *

# Measurement notes: Phase I study CXR1002-001: plasma pharmacokinetics (LC-MS/MS)
# Assay type: in vivo, human
# Condition summary: human, plasma, po, 1000 mg, Patient 042, 1000 mg weekly oral dose, Time 675 hr; read-out: Concentration (plasma level)
Readout label: concentration at 675 hr
Kindly format the answer as number then unit.

Endpoint output: concentration at 675 hr of O=C(O)C(F)(F)C(F)(F)C(F)(F)C(F)(F)C(F)(F)C(F)(F)C(F)(F)F . Value? 1190 µM

* * *

# Measurement notes: Phase I study CXR1002-001: plasma pharmacokinetics (LC-MS/MS)
# Assay type: in vivo, human
# Condition summary: human, plasma, po, 1000 mg, Patient 042, 1000 mg weekly oral dose, Time 336 hr (Day 15); read-out: Concentration (plasma level)
Readout label: concentration at 336 hr (µM)
All answers are understood in µM, so give the number only.

Endpoint output: concentration at 336 hr of O=C(O)C(F)(F)C(F)(F)C(F)(F)C(F)(F)C(F)(F)C(F)(F)C(F)(F)F . Value? 586

* * *

# Measurement notes: Phase I study CXR1002-001: plasma pharmacokinetics (LC-MS/MS)
# Format: in vivo, human
# Condition summary: human, plasma, oral, 450 mg, Patient 015 Dose 450 mg; 336 hr (Day 15); read-out: Concentration
Readout label: concentration at 336 h (µM)
All answers are understood in µM, so give the number only.

Endpoint output: concentration at 336 h of O=C(O)C(F)(F)C(F)(F)C(F)(F)C(F)(F)C(F)(F)C(F)(F)C(F)(F)F [CXR1002] . Value? 286

* * *

# Measurement notes: Phase I study CXR1002-001: plasma pharmacokinetics (LC-MS/MS)
# Format: in vivo, human
# Condition summary: human, plasma, po, 1000 mg, Patient 041, 1000 mg weekly oral dose, Time 336 hr (Day 15); read-out: Concentration (plasma level)
Readout label: concentration at 336 h (µM)
All answers are understood in µM, so give the number only.

Endpoint output: concentration at 336 h of O=C(O)C(F)(F)C(F)(F)C(F)(F)C(F)(F)C(F)(F)C(F)(F)C(F)(F)F . Value? 294

* * *

# Measurement notes: Phase I study CXR1002-001: plasma pharmacokinetics (LC-MS/MS)
# Format: in vivo, human
# Condition summary: human, plasma, po, 1200 mg, Patient 037, 1200 mg weekly oral dose, Time 171 hr; read-out: Concentration (plasma level)
Readout label: concentration at 171 h (µM)
All answers are understood in µM, so give the number only.

Endpoint output: concentration at 171 h of O=C(O)C(F)(F)C(F)(F)C(F)(F)C(F)(F)C(F)(F)C(F)(F)C(F)(F)F [CXR1002] . Value? 660

* * *

# Measurement notes: Phase I study CXR1002-001: plasma pharmacokinetics (LC-MS/MS)
# Assay type: in vivo, human
# Condition summary: human, plasma, oral, 600 mg, Patient 024, 600 mg, person, plasma, 170 hr; read-out: Concentration
Readout label: concentration at 170 h (µM)
All answers are understood in µM, so give the number only.

Endpoint output: concentration at 170 h of O=C(O)C(F)(F)C(F)(F)C(F)(F)C(F)(F)C(F)(F)C(F)(F)C(F)(F)F . Value? 436

* * *

# Measurement notes: Phase I study CXR1002-001: plasma pharmacokinetics (LC-MS/MS)
# Format: in vivo, human
# Condition summary: human, plasma, oral, 300 mg, Patient 014 Dose 300 mg; 168 hr (Day 8); read-out: Concentration
Readout label: concentration at 168 h (µM)
All answers are understood in µM, so give the number only.

Endpoint output: concentration at 168 h of O=C(O)C(F)(F)C(F)(F)C(F)(F)C(F)(F)C(F)(F)C(F)(F)C(F)(F)F . Value? 79.6

* * *

# Measurement notes: Phase I study CXR1002-001: plasma pharmacokinetics (LC-MS/MS)
# Type: in vivo, human
# Condition summary: human, plasma, oral, 300 mg, Patient 011 Dose 300 mg; 172 hr; read-out: Concentration
# Text: PK samples, PD (fasting) samples, blood glucose, and blood triglyceride samples, were taken over a 6-week period. Dose limiting toxicity (DLT) will be based on the toxicity assessments over the first 3-week period of the repeat dosing schedule. […]
Readout label: concentration at 172 h (µM)
All answers are understood in µM, so give the number only.

Endpoint output: concentration at 172 h of O=C(O)C(F)(F)C(F)(F)C(F)(F)C(F)(F)C(F)(F)C(F)(F)C(F)(F)F [CXR1002] . Value? 138
